pIC50: −log10 of the molar value.
Please find below pIC50 measurements for Tyrosine-protein kinase JAK1 (Homo sapiens), combined from several publications.

Please review the entries below; each comes with its answer.
compound structure string | data value
N#CCCN1[C@@H]2CC[C@H]1C[C@H](Nc1nc(Nc3ncc(CCO)s3)cc3ncccc13)C2 | 7.68
O=C(NCCC1CCCC1)c1noc2c1CN(c1ncnc3[nH]ccc13)CC2 | 6.30 to 7.00
CCc1c[nH]c(C(=O)Nc2cccc3c(-c4ccnc(NC(=O)C5CC5)c4)c[nH]c23)c1 | 6.00 to 7.00
Cc1ccc(NC(=O)c2cc(C(F)(F)F)cc(Cl)c2F)cc1-c1ccc2c(c1)[nH]c1ncncc12 | ≥ 6.30
CCS(=O)(=O)N1CC(CC#N)(n2cc(-c3nc(Nc4cccc(N5CCOCC5)c4)nc4ccsc34)cn2)C1 | 6.00 to 6.30

Identify the measured pIC50 of CCOC(=O)Cn1cc(Nc2ncc3ccn(C[C@H]4CC[C@@H](OC)CC4)c3n2)cn1 for Tyrosine-protein kinase JAK1 (Homo sapiens).
5.00 to 6.00

Identify the measured pIC50 of Cc1cnc2cc(Nc3ncc(Cl)c(NC4CCN(c5ccc(C#N)nn5)CC4)n3)ccn12 for Tyrosine-protein kinase JAK1 (Homo sapiens).
9.40

Identify the measured pIC50 of Cc1cnc2nc1NCCCCCNC(=O)c1ccc(c(F)c1F)-c1cnc(F)c(c1)N2 for Tyrosine-protein kinase JAK1 (Homo sapiens).
6.00 to 7.00
